- test_name: Permeability of compound after 5 hrs by PAMPA
- Type: ADME
- cond: read-out: permeability
Recorded Papp at 5 h values for a group of molecules are listed next.
Write the value in ×10⁻⁶ cm/s as a bare number.

Examples with their reported Papp at 5 h follow.
N=C(N)NCCC[C@H](NC(=O)c1ccc(-c2cccs2)s1)C(=O)N[C@@H](CCCCN)C(=O)N[C@@H](C(N)=O)c1ccc(OCc2ccc(Cl)c(Cl)c2)cc1 = 0.79
CC(C)(C)c1ccc(COc2ccc([C@@H](NC(=O)[C@H](CCCCN)NC(=O)[C@H](CCCNC(=N)N)NC(=O)c3ccc(Cl)s3)C(N)=O)cc2)cc1 = 0.33

Now take the following molecule into account.
Need Papp at 5 h, item COc1cccc(COc2ccc([C@@H](NC(=O)[C@H](CCCCN)NC(=O)[C@H](CCCNC(=N)N)NC(=O)c3ccc(-c4cccs4)s3)C(N)=O)cc2)c1
0.65

* * *

- Test system: West Nile virus
- test_name: Inhibition of West Nile virus NS2B-NS3 protease using 2-Abz-Gly-Leu-Lys-Arg-Gly-Gly-[…]-Tyr-NH2 as substrate at 50 uM preincubated with protein for 15 mins followed by substrate addition measured for 15 mins by FRET assay
Square brackets hold non-standard residues; d marks the D form. Peptide text beside a SMILES is read from it. * marks the point of attachment. dPhg = N[C@@H](C(=O)O)c1ccccc1; Bz = O=C(c1ccccc1)*
Entries and their measured inhibition follow.
Expressed in %, but write only the number.

Use the examples below as a reference point.
Cc1cccc(COc2ccc([C@@H](NC(=O)[C@H](CCCCN)NC(=O)[C@H](CCCNC(=N)N)NC(=O)c3ccccc3)C(N)=O)cc2)c1 = 85.2
N=C(N)NCCC[C@H](NC(=O)c1cccs1)C(=O)N[C@@H](CCCCN)C(=O)N[C@@H](C(N)=O)c1ccc(OCc2ccc(C(F)(F)F)cc2)cc1 = 101
N=C(N)NCCC[C@H](NC(=O)c1ccccc1)C(=O)N[C@@H](CCCCN)C(=O)N[C@@H](C(N)=O)c1ccc(OCc2ccccc2)cc1 = 101

Find inhibition (West Nile virus) for the entry N=C(N)NCCC[C@H](NC(=O)c1ccccc1C(F)(F)F)C(=O)N[C@@H](CCCCN)C(=O)N[C@@H](C(N)=O)c1ccc(OCc2ccccc2)cc1
98.7

Recall the recorded inhibition for N=C(N)NCCC[C@H](NC(=O)c1ccccc1)C(=O)N[C@@H](CCCCN)C(=O)N[C@@H](C(N)=O)c1ccccc1 (Bz-Arg-Lys-[dPhg]-NH2) with West Nile virus and state it.
99

Enter reported inhibition observed with West Nile virus for N=C(N)NCCC[C@H](NC(=O)/C=C/c1ccccc1)C(=O)N[C@@H](CCCCN)C(=O)N[C@@H](C(N)=O)c1ccc(OCc2ccccc2)cc1
99.7

* * *

- test_name: Inhibition of Dengue virus serotype-2 NS2B-NS3 protease using 2-Abz-Nle-Lys-Arg-Arg-Ser-(3-NO2)-Tyr-NH2 as substrate preincubated with protein for 15 mins followed by substrate addition measured for 15 mins by FRET assay
- Parameters: species or system dengue virus type 2
The label condition met is reserved for IC50 strictly under 200 nM; condition not met covers values equal to or above it.

Example results:
N=C(N)NCCC[C@H](NC(=O)c1ccccc1)C(=O)N[C@@H](CCCCN)C(=O)N[C@@H](C(N)=O)c1ccc(OCc2ccc(Cl)c(Cl)c2)cc1 = condition met
COc1cccc(COc2ccc([C@@H](NC(=O)[C@H](CCCCN)NC(=O)[C@H](CCCNC(=N)N)NC(=O)c3nccs3)C(N)=O)cc2)c1 = condition met
N=C(N)NCCC[C@H](NC(=O)c1ccccc1)C(=O)N[C@@H](CCCCN)C(=O)N[C@@H](C(N)=O)c1ccc(OCc2ccc(Br)cc2)cc1 = condition not met
N=C(N)NCCC[C@H](NC(=O)c1ccc(-c2cccs2)s1)C(=O)N[C@@H](CCCCN)C(=O)N[C@@H](C(N)=O)c1ccc(OCc2ccccc2)cc1 = condition not met
N=C(N)NCCC[C@H](NC(=O)c1ccccc1)C(=O)N[C@@H](CCCCN)C(=O)N[C@@H](C(N)=O)c1ccc(OCc2ccc3ccccc3c2)cc1 = condition met

Alright, here's another compound for you.
State whether 200 nM exceeds IC50 recorded for N=C(N)NCCC[C@H](NC(=O)c1ccc(-c2ccccc2)s1)C(=O)N[C@@H](CCCCN)C(=O)N[C@@H](C(N)=O)c1ccc(OCc2ccccc2)cc1 .
condition not met
